# tested_target: recombinant active human PAI-1 (Homo sapiens (Human))
# Sequence (P05121 24-402): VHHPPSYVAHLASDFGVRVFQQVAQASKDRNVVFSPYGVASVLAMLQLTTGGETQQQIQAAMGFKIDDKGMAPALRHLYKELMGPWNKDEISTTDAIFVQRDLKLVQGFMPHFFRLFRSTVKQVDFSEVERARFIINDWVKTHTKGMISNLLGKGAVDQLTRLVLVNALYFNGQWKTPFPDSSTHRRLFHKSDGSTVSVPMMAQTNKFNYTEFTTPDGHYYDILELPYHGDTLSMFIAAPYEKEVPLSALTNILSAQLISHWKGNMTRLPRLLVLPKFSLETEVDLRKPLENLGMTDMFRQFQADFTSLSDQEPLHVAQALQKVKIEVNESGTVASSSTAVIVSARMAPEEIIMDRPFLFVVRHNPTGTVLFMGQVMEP
# assay_overview: Fluorometric PAI-1/uPA IC50 plate assay at pH 7.4
# Assay type: biochemical
# setup_conditions: physiologic buffer with 1.5% BSA (15 mg/mL), read-out: PAI-1/uPA IC50 in 1.5% BSA buffer
pIC50: −log10 of the molar value.

compound	tested_target	pIC50
COC(=O)CCC(=O)NCc1cccc(C(F)(F)F)c1 [C288]	recombinant active human PAI-1 (Homo sapiens (Human))	2.97
CONC(=O)C(=O)NCc1ccc(Cl)c(C(F)(F)F)c1 [C320]	recombinant active human PAI-1 (Homo sapiens (Human))	3.29
O=C(CCc1ccc(O)c(O)c1)NCc1cccc(OC(F)(F)F)c1 [C357]	recombinant active human PAI-1 (Homo sapiens (Human))	2.91
Cc1ccc(CNC(=O)C(=O)NN)cc1F [C305]	recombinant active human PAI-1 (Homo sapiens (Human))	4.09
O=C(NCc1ccc(Cl)c(C(F)(F)F)c1)c1ccc(O)c(O)c1 [C348]	recombinant active human PAI-1 (Homo sapiens (Human))	3.34
Cc1ccc(CNC(=O)C(=O)NN)cc1 [C362]	recombinant active human PAI-1 (Homo sapiens (Human))	3.45
NNC(=O)C(=O)NCc1cccc(F)c1 [C264]	recombinant active human PAI-1 (Homo sapiens (Human))	2.93
NNC(=O)C(=O)NCc1cc(F)cc(F)c1 [C340]	recombinant active human PAI-1 (Homo sapiens (Human))	3.60
NNC(=O)C(=O)NCc1cccc(C(F)(F)F)c1 [C297]	recombinant active human PAI-1 (Homo sapiens (Human))	3.95
NNC(=O)C(=O)NCc1cccc(Cl)c1Cl [C301]	recombinant active human PAI-1 (Homo sapiens (Human))	3.89
N#Cc1ccc(CNC(=O)C(=O)NN)cc1 [C336]	recombinant active human PAI-1 (Homo sapiens (Human))	3.05
NNC(=O)C(=O)NCc1cccc(Cl)c1 [C266]	recombinant active human PAI-1 (Homo sapiens (Human))	3.90
O=C(Cc1ccc(O)c(O)c1)NCc1ccc(Cl)c(C(F)(F)F)c1 [C347]	recombinant active human PAI-1 (Homo sapiens (Human))	3.51
CC(C)=NNC(=O)C(=O)NCc1cc(F)cc(F)c1 [C313]	recombinant active human PAI-1 (Homo sapiens (Human))	3.27
Cc1ccc(CNC(=O)c2n[nH]c(=O)o2)cc1F [C306]	recombinant active human PAI-1 (Homo sapiens (Human))	3.39
O=C(CCc1ccc(O)c(O)c1)NCc1cc(F)c(F)c(F)c1 [C356]	recombinant active human PAI-1 (Homo sapiens (Human))	2.91
NNC(=O)C(=O)NCc1ccccc1F [C263]	recombinant active human PAI-1 (Homo sapiens (Human))	2.77
Cc1cc(Cl)ccc1CNC(=O)c1n[nH]c(=O)o1 [C299]	recombinant active human PAI-1 (Homo sapiens (Human))	3.13
O=C(CCc1ccc(O)c(O)c1)NCc1ccc(Cl)cc1 [C359]	recombinant active human PAI-1 (Homo sapiens (Human))	2.68
COC(=O)CCC(=O)NCc1ccc(F)c(C(F)(F)F)c1 [C276]	recombinant active human PAI-1 (Homo sapiens (Human))	3.37
O=C(NCc1ccc(C(F)(F)F)cc1)c1ccc(O)c(O)c1 [C363]	recombinant active human PAI-1 (Homo sapiens (Human))	3.12
O=C(NCc1cccc(C(F)(F)F)c1)c1ccc(O)c(O)c1 [C364]	recombinant active human PAI-1 (Homo sapiens (Human))	3.05
NNC(=O)C(=O)NCc1cccc(OC(F)(F)F)c1 [C268]	recombinant active human PAI-1 (Homo sapiens (Human))	4.19
NNC(=O)C(=O)NCc1ccc(C(F)(F)F)cc1 [C296]	recombinant active human PAI-1 (Homo sapiens (Human))	4.16
Cc1cc(CNC(=O)CCc2ccc(O)c(O)c2)ccc1F [C358]	recombinant active human PAI-1 (Homo sapiens (Human))	2.91
O=C(CCc1ccc(O)c(O)c1)NCc1ccc(C(F)(F)F)cc1 [C345]	recombinant active human PAI-1 (Homo sapiens (Human))	3.17
Cc1ccc(F)cc1CNC(=O)C(=O)NN [C341]	recombinant active human PAI-1 (Homo sapiens (Human))	2.84
COc1cccc(CNC(=O)C(=O)NN)c1 [C295]	recombinant active human PAI-1 (Homo sapiens (Human))	3.11
O=C(NCc1ccc(Cl)c(C(F)(F)F)c1)c1n[nH]c(=O)o1 [C285]	recombinant active human PAI-1 (Homo sapiens (Human))	3.58
O=C(CCc1ccc(O)c(O)c1)NCc1cccc(C(F)(F)F)c1 [C344]	recombinant active human PAI-1 (Homo sapiens (Human))	3.08
NNC(=O)C(=O)NCc1cc(C(F)(F)F)cc(C(F)(F)F)c1 [C339]	recombinant active human PAI-1 (Homo sapiens (Human))	3.61
O=C(CCc1ccc(O)c(O)c1)NCc1ccc(Cl)c(C(F)(F)F)c1 [C330]	recombinant active human PAI-1 (Homo sapiens (Human))	3.95
NNC(=O)C(=O)NCc1cc(F)c(F)c(F)c1 [C304]	recombinant active human PAI-1 (Homo sapiens (Human))	4.05
